Target of assay: RIPK1 (Homo sapiens (Human), UniProt Q13546)
Sequence (Q13546 1-327): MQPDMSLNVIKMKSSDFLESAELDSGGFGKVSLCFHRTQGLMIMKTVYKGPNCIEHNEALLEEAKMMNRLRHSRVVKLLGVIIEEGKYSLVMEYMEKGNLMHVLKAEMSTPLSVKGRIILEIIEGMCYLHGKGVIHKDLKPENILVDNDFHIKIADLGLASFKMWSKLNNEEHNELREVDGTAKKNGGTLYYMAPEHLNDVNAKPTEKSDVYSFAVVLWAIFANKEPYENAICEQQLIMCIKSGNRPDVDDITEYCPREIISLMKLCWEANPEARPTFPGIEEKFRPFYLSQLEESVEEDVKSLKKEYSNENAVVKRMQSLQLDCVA
Assay comment: ADP-Glo kinase assay (RIPK1 activity, conversion of ATP to ADP)
Format: biochemical
Protocol conditions: 5 nM RIPK1, 50 μM ATP, 6 h reaction; read-out: RIPK1 Enzyme Avg IC50
Method: In order to measure RIPK1 activity the ADP-Glo kinase assay (Promega, Catalog #V7002) was used to measure the conversion of ATP to ADP. […] Luminescence was measured using a BioTek Synergy™ NEO plate reader. IC50 values were calculated using a four-parameter logistic curve fit using Genedata Screener software.
Metric: IC50 (nM)

Compound: O=C(N1CC(F)CC1c1cccc(F)c1)C12CC(COc3ccccc3)(C1)C2 (centres unmarked)
Metric: IC50
Reported: 55
--
Compound: N#Cc1ccc2c(cnn2CC23CC(C(=O)N4CCC4c4ccccc4)(C2)C3)c1 (centres unmarked)
Metric: IC50
Reported: 54
--
Compound: O=C(N1N=CCC1c1ccccc1)C12CC(Cn3ncc4ncccc43)(C1)C2 (centres unmarked)
Metric: IC50
Reported: 30
--
Compound: N#Cc1cccc(C2CC=NN2C(=O)C23CC(Cn4ncc5ncccc54)(C2)C3)c1 (centres unmarked)
Metric: IC50
Reported: 95
--
Compound: O=C(N1N=CCC1c1cc(F)cc(F)c1)C12CC(COc3ccc(F)cc3Cl)(C1)C2 (centres unmarked)
Metric: IC50
Reported: 18
--
Compound: O=C(N1N=CCC1c1cc(F)cc(F)c1)C12CC(Cn3ncc4ccc(F)cc43)(C1)C2 (centres unmarked)
Metric: IC50
Reported: 34
--
Compound: N#Cc1ccc2c(cnn2CC23CC(C(=O)N4N=CCC4c4cc(F)ccc4F)(C2)C3)c1 (centres unmarked)
Metric: IC50
Reported: 24
--
Compound: O=C(N1N=CCC1c1cc(F)cc(F)c1)C12CC(Cn3cnc4ncccc43)(C1)C2 (centres unmarked)
Metric: IC50
Reported: 292
--
Compound: N#Cc1cnn(CC23CC(C(=O)N4CC(F)CC4c4cccc(F)c4)(C2)C3)c1 (centres unmarked)
Metric: IC50
Reported: 466
--
Compound: Cc1c2cc(C#N)ccc2nn1CC12CC(C(=O)N3N=CCC3c3cncc(F)c3)(C1)C2 (centres unmarked)
Metric: IC50
Reported: 515
--
Compound: N#Cc1ccn(CC23CC(C(=O)N4CC(F)CC4c4cccc(F)c4)(C2)C3)c(=O)c1 (centres unmarked)
Metric: IC50
Reported: 19300
--
Compound: COc1cnn(CC23CC(C(=O)N4N=CCC4c4cc(F)cc(F)c4)(C2)C3)c1 (centres unmarked)
Metric: IC50
Reported: 82
--
Compound: O=C(N1N=CCC1c1ccccc1)C12CC(Cn3ncc4c(F)cccc43)(C1)C2 (centres unmarked)
Metric: IC50
Reported: 11
--
Compound: N#Cc1ncn(CC23CC(C(=O)N4N=CCC4c4cc(F)cc(F)c4)(C2)C3)n1 (centres unmarked)
Metric: IC50
Reported: 103
--
Compound: O=C(N1N=CCC1c1cc(F)cc(F)c1)C12CC(COc3cc(Br)ncn3)(C1)C2 (centres unmarked)
Metric: IC50
Reported: 23
--
Compound: N#Cc1ccc(OCC23CC(C(=O)N4N=CCC4c4cc(F)cc(F)c4)(C2)C3)c(F)c1 (centres unmarked)
Metric: IC50
Reported: 16
--
Compound: N#Cc1cccc(C2CC=NN2C(=O)C23CC(Cn4cc(C#N)cn4)(C2)C3)c1 (centres unmarked)
Metric: IC50
Reported: 379

###

Target of assay: RIPK1 (Homo sapiens (Human))
Assay comment: ADP-Glo kinase assay (RIPK1 activity, conversion of ATP to ADP)
Format: biochemical
Protocol conditions: 5 nM RIPK1, 50 μM ATP, 6 h reaction; read-out: RIPK1 Enzyme Avg IC50
Metric: log10 IC50 (log10 of the value in nM)

Compound: COC(=O)C12CC(C(=O)N3CC(F)CC3c3cccc(F)c3)(C1)C2 (stereo not shown)
Metric: log10 IC50
Reported: 3.03
//
Compound: C[C@H](NC(=O)C12CC(COc3cc(C#N)ncn3)(C1)C2)c1cc(F)cc(F)c1
Metric: log10 IC50
Reported: 3.30
//
Compound: Cn1cc(-c2cc(OCC34CC(C(=O)N5CC(F)CC5c5cccc(F)c5)(C3)C4)ncn2)cn1 (single isomer, unassigned) [Example 30]
Metric: log10 IC50
Reported: 2.09
//
Compound: O=C(O)C12CC(C(=O)N3N=CCC3c3cc(F)cc(F)c3)(C1)C2 (stereo not shown)
Metric: log10 IC50
Reported: 4.33
//
Compound: N#Cc1cnc(OCC23CC(C(=O)N4CC(F)CC4c4cccc(F)c4)(C2)C3)nc1 (stereo not shown)
Metric: log10 IC50
Reported: 2.45
//
Compound: N#Cc1cn(CC23CC(C(=O)N4N=CCC4c4cc(F)cc(F)c4)(C2)C3)nn1 (stereo not shown)
Metric: log10 IC50
Reported: 2.06
//
Compound: O=C(N1N=CCC1c1cc(F)cc(F)c1)C12CC(Cn3ncc4cccnc43)(C1)C2 (stereo not shown)
Metric: log10 IC50
Reported: 1.40
//
Compound: O=C(N1N=CCC1c1cc(F)cc(F)c1)C12CC(COc3cc(Cl)ncn3)(C1)C2 (stereo not shown)
Metric: log10 IC50
Reported: 1.32
//
Compound: O=C(N1N=CCC1c1cc(F)cc(F)c1)C12CC(COc3cc(F)ccc3F)(C1)C2 (stereo not shown)
Metric: log10 IC50
Reported: 1.41
//
Compound: COc1ccnc(OCC23CC(C(=O)N4N=CCC4c4cc(F)cc(F)c4)(C2)C3)n1 (stereo not shown)
Metric: log10 IC50
Reported: 1.88
//
Compound: Cn1cc(-c2cc(OCC34CC(C(=O)N5CC(F)CC5c5cccc(F)c5)(C3)C4)ncn2)cn1 (single isomer, unassigned) [Example 29]
Metric: log10 IC50
Reported: 2.33
//
Compound: O=C(N1CC(F)CC1c1cccc(F)c1)C12CC(COc3ncc(F)cn3)(C1)C2 (stereo not shown)
Metric: log10 IC50
Reported: 2.34
//
Compound: N#Cc1ccc2nn(CC34CC(C(=O)N5N=CCC5c5cc(F)cc(F)c5)(C3)C4)cc2c1 (stereo not shown)
Metric: log10 IC50
Reported: 1.65
//
Compound: N#Cc1cc2cnn(CC34CC(C(=O)N5N=CCC5c5cc(F)cc(F)c5)(C3)C4)c2cn1 (stereo not shown)
Metric: log10 IC50
Reported: 1.52
//
Compound: O=C(N1N=CCC1c1cc(F)cc(F)c1)C12CC(CN3CCOCC3)(C1)C2 (stereo not shown)
Metric: log10 IC50
Reported: 3.18
//
Compound: N#Cc1cnc2cnn(CC34CC(C(=O)N5N=CCC5c5cc(F)cc(F)c5)(C3)C4)c2c1 (stereo not shown)
Metric: log10 IC50
Reported: 1.40

###

Each item that follows carries a reported IC50.
Target of assay: RIPK1 (Homo sapiens (Human), UniProt Q13546)
Assay comment: ADP-Glo kinase assay (RIPK1 activity, conversion of ATP to ADP)
Assay type: biochemical
Protocol conditions: 5 nM RIPK1, 50 μM ATP, 6 h reaction; read-out: RIPK1 Enzyme Avg IC50

Compound: N#Cc1cccc2cn(CC34CC(C(=O)N5N=CCC5c5cc(F)cc(F)c5)(C3)C4)nc12 (centres unmarked)
IC50: 79 nM
--
Compound: N#Cc1cccc(C2CC=NN2C(=O)C23CC(Cn4ncc5cc(C#N)ccc54)(C2)C3)c1 (centres unmarked)
IC50: 16 nM
--
Compound: N#Cc1ccc2c(cnn2CC23CC(C(=O)NCc4cc(F)cc(F)c4)(C2)C3)c1
IC50: 4520 nM
--
Compound: O=C(N1N=CCC1c1cc(F)cc(F)c1)C12CC(CF)(C1)C2 (centres unmarked)
IC50: 17 nM
--
Compound: NC(=O)c1cc(OCC23CC(C(=O)N4CC(F)CC4c4cccc(F)c4)(C2)C3)ncn1 (centres unmarked)
IC50: 240 nM
--
Compound: N#CCC12CC(C(=O)N3N=CCC3c3cc(F)cc(F)c3)(C1)C2 (centres unmarked)
IC50: 70 nM
--
Compound: Cc1ccc2c(cnn2CC23CC(C(=O)N4N=CCC4c4cncc(F)c4)(C2)C3)n1 (centres unmarked)
IC50: 139 nM
--
Compound: O=C(N1N=CCC1c1cc(F)cc(F)c1)C12CC(Cn3cc(C4CC4)nn3)(C1)C2 (centres unmarked)
IC50: 1120 nM
--
Compound: O=C(N1CC(F)CC1c1cccc(F)c1)C12CC(COc3nccc(Cl)n3)(C1)C2 (centres unmarked)
IC50: 486 nM
--
Compound: O=C(N1N=CCC1c1cc(F)cc(F)c1)C12CC(Cn3cc4ccncc4n3)(C1)C2 (centres unmarked)
IC50: 24 nM
--
Compound: N#Cc1cnc2ncn(CC34CC(C(=O)N5N=CCC5c5cc(F)cc(F)c5)(C3)C4)c2c1 (centres unmarked)
IC50: 136 nM
--
Compound: O=C(N1N=CCC1c1cc(F)cc(F)c1)C12CC(COc3ncc(F)cc3F)(C1)C2 (centres unmarked)
IC50: 18 nM
--
Compound: Cc1cc(C)n(CC23CC(C(=O)N4N=CCC4c4cc(F)cc(F)c4)(C2)C3)n1 (centres unmarked)
IC50: 323 nM
--
Compound: O=C(N1CC(F)CC1c1cccc(F)c1)C12CC(Cn3ncc4c(F)cccc43)(C1)C2 (centres unmarked)
IC50: 16 nM
--
Compound: N#Cc1ccc2cnn(CC34CC(C(=O)N5N=CCC5c5cc(F)cc(F)c5)(C3)C4)c2c1 (centres unmarked)
IC50: 16 nM
--
Compound: O=C(N1N=CCC1c1cc(F)cc(F)c1)C12CC(C(O)c3cccc(Cl)c3)(C1)C2 (centres unmarked)
IC50: 93 nM
--
Compound: N#Cc1ccc2c(cnn2CC23CC(C(=O)N4N=CCC4c4ccccc4)(C2)C3)c1 (centres unmarked)
IC50: 24 nM
